Form field: pIC50 (one value per entry).
Target: T1, human IL-1β (human, UniProt P01584 117-269)
T1 construct: antigen of the ABT2 dAbs; also called hIL-1β; IL-1 beta
Test: IC50 column of Table 63; receptor binding assay presumed
Conceptually, pIC50 converts a concentration in mol/L into minus its log10.

Reference set, count: 5
Sample ABT2-65-138 (other, VH dAb) VH: EVQLLESGGGLVQPGGSLRLSCAASGFTFEDYQMGWVRQAPGKGLEWVSSISAMGNRTYYADSVKGRFTISRDDSKNTLYLQMNSLRAEDTAVYYCAENLVRVTARKWMFDYWGQGTLVTVSS ; pIC50 observed: 8.30

Notebook: ABT2-65-120 (other, VH dAb) VH: EVQLLESGGGLVQPGGSLRLSCVASGFTFEDYQMGWVRQAPGKGLEWVSSISAMGMRTYYADSVKGRFTISRDDSKNTLYLQMNSLRAEDTAVYYCAQNLVRLGRSRWMFDYWGQGTLVTVSS , pIC50 read as 8.38

Query ABT2-65-27 (other, VH dAb) VH: EVQLLESGGGLVQPGGSLRLSCAASGFTFEDYQMGWVRQAPGKGLEWVSSISAMGNRTYYADSVKGRFTISRDDSKNTLYLQMNSLRAEDTAVYYCAENLVRLWKGRWMFDYWGQGTLVTVSS yields pIC50 of 8.46

Noted for ABT2-65-175 (other, VH dAb) VH: EVQLLESGGGLVQPGGSLRLSCAASGFTFEDYQMGWVRQAPGKGLEWVSSISAMGNRTYYADSVKGRFTISRDDSKNTLYLQMNSLRAEDTAVYYCAENLVRIAGDRWMFDYWGQGTLVTVSS : its pIC50 reads 8.00

Field pIC50 (entry ABT2-65-90 (other, VH dAb) VH: EVQLLESGGGLVQPGGSLRLSCVASGFTFEDYQMGWVRQAPGKGQEWVSSISAMGNRTYYADSVKGRFTISRDDSKNTLYLQMNSLRAEDTAVYYCAQNLVRLGRSRWMFDYWGHGTLVTVSS ) reads 6.52

Next item in the queue.
Please fill in: pIC50 reported for ABT2-65-87 (other, VH dAb) VH: EVQLLESGGGLVQPGGSLRLSCVASGFTFEDYQMGWVRQAPGKDLEWVSSISAMGNRTYYADSVKGRFTISRDDSKNTLYLQMNSLRAEDTAVYYCAQNLVRLGRSRWMFDYWGQGTLVTVSS = 7.30

Data credit: patent US20090291081A1
